Recorded values, source patent US4425350A.

# PROTOCOL_DETAILS: Acute toxicity (LD50), intragastral administration, male mice
# PROTOCOL_CONDITIONS: mouse, in vivo, po
Recorded LD50 for the following molecules

Below, 3 molecules whose answers are already recorded.
### Prompt Bench note: what LD50 did COc1cc2c(cc1OC)-c1c(OC)c(OC)cc3c1C(CNC3)C2 (racemic) show?
### Response ~600 mg/kg

### Prompt Name the reported LD50 value associated with the molecule COc1cc2c(cc1OC)-c1cc(OC)c(OC)c3c1C(C2)CN(C)C3 (racemic)
### Response ~1200 mg/kg

### Prompt Need LD50, item COc1cc2c3c(c1OC)CN(C)CC3Cc1cc3c(cc1-2)OCO3 (racemic)
### Response ~1200 mg/kg

The record that follows has no LD50 shown yet.
### Prompt Any idea what LD50 was measured for COc1cc2c(cc1OC)-c1c(OC)c(OC)cc3c1C(C2)CN(C)C3 (racemic) ?
### Response 800 mg/kg
